System: mouse tracheal rings
Assay: Wire myograph bronchodilation of carbachol pre-contracted mouse tracheal rings
Settings: Mus musculus, pre-contracted with EC75 carbachol, average; read-out: EC50 relaxation of mouse tracheal rings
pEC50: −log10 of the molar value.
Below, each of the molecules is paired with its reported pEC50 value.
Metric Name: pEC50

- Molecule: "O=C(Nc1ccc([N+](=O)[O-])cc1Cl)c1cc(Cl)ccc1O [Niclosamide]"
  Measured Number: 6.44
- Molecule: "CC(C)NCC(O)c1ccc(O)c(O)c1 (stereo not drawn)"
  Measured Number: 8.15

====

Tested on: mouse tracheal rings
Assay: Wire myograph bronchodilation of carbachol pre-contracted mouse tracheal rings
Conditions: Mus musculus, carbachol pre-contracted; values marked § (footnote not given); read-out: Bronchodilation of Mouse Tracheal Rings (EC50)
Metric Name: EC50 (nM)

- Smiles Text: "O=C(Nc1ncc([N+](=O)[O-])s1)c1cccs1"
  Unit: "nM"
  Measured Number: 7610
- Smiles Text: "O=C(Nc1ccc([N+](=O)[O-])cc1)c1cc(Cl)c2ccccc2c1O"
  Unit: "nM"
  Measured Number: 606
- Smiles Text: "O=C(Nc1ccc([N+](=O)[O-])cc1)c1cc(Cl)ccc1O"
  Unit: "nM"
  Measured Number: 585
